What TCF EC50 was measured for each of the following?
- assayed-system: T1, human DKK1 (human, UniProt O94907 32-266)
- T1 sequence: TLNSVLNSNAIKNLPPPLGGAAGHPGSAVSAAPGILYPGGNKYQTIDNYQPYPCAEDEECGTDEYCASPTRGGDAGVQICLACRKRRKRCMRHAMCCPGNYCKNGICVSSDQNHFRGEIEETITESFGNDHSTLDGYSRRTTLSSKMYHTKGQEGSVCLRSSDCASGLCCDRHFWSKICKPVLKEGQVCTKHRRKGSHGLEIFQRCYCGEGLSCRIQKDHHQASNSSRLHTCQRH
- protocol-summary: cell-based or functional assay
One number for each entry, in nM.

• 5.65.1 (antibody, V domains shown, Fully human hybridoma IgG, lambda (Vl)) VH: EVQLLESGGGLVQPGGSLRLSCAASGFTSGNYAMSWVRQAPGKGLEWVSAISGGGGTTYYADSVEGRFTISRDNSKNTLYLQLNSLRAEDTAVYYCAKEFGELEPRFDYWGQGTLVTVSS VL: SYVLTQPPSVSVAPGQTARITCGGNNIGSKSVHWYQQKPGQAPVLVVYDDSDRPSGIPERFSGSNSGNTATLTISRVEAGDEADYYCQVLDSSSDHVIFGGGTKLTVL = 4.21

Working through the 4 binders below one at a time, give TCF EC50 for each.
1. 2.47.1 (antibody, V domains shown, Fully human hybridoma IgG, kappa (Vk)) VH: QVQLQESGPGLVKPSQTLSLTCTVSGGSISSGGYYWSWIRQHPGKGLEWIGDIYYSGSTYYNPSLKSRVTISVDTSKNQFSLKLSSVTAADTAVYYCARDRAYGDYGGDYYYGMDVWGQGTTVTVSS VL: DIVMTQTPLSLPVTPGEPASISCRSSQSLLDSDDGDTYLDWYLQKPGQSPQLLIYTLSYRASGVPDRFSGSGSGTDFTLKISRVEAEDVGVYYCMQRIEFPFTFGPGTKVDIK
2. 5.32.1 (antibody, V domains shown, Fully human hybridoma IgG, kappa (Vk)) VH: QVQLVQSGAEVKKPGASVKVSCKASGFTFTSYDISWVRQATGLGLEWMGWMNPSSGYTGYAQNFQGRVTMTWNTSISTVYMELSSLRSEDTAVYYCARTDYYYYGMDVWGRGTTVTVSS VL: DIQMTQSPSSLSASVGDRVTITCQASQDISKDLNWYQQKPGKAPKLLIYDASNLETGVPSRFSGSGSGTDFTFTISSLQPEDIATYYCQQYDDLPITFGQGTRLEIK
3. 5.17.1 (antibody, V domains shown, Fully human hybridoma IgG, kappa (Vk)) VH: QVQLQESGPGLVKPSETLSLTCTVSGGSISSYYWSWIRQPPGKGLEWIGYIYYSGNTNYNPSLKSRVTISVDTSKNQFSLKLRSVTAADTAVYYCARYNWNNDLFDYWGQGTLVTVSS VL: DIQMTQSPSSLSASVGDRVTITCQASQDINNYLNWYQQKPGKAPNLLIYDASNLETGVPSRFSGSGSGTDFTFTISSLQPADIATYYCQQYDDFPLTFGGGTKVEIK
4. 5.25.1 (antibody, V domains shown, Fully human hybridoma IgG, kappa (Vk)) VH: QVQLVQSGAEVKKPGASVKVSCKASGYTFTSYDINWVRQATGQGLEWMGWMDPNSGNTGYAQKFQGRVTMTRNTSISTAFMELSSLRSEDTAVYYCARTDYFYFGMDVWGQGTTVTVSS VL: DIQMTQSPSSLSASVGDRVTITCQASQDISKDLNWYQQKPGKAPRLLIYDASNLETGVPSRFSGSGSGTDFTFTISSLQPEDIATFYCQQYDHLPIAFGQGTRLEIK

60.7
1.01
3.48
1.88
